Entry source: the kinase profiling compilation of Christmann-Franck et al. (2016)

# system: MAP2K1 (human) (UniProt Q02750)
# Sequence (Q02750 whole entry, looked up): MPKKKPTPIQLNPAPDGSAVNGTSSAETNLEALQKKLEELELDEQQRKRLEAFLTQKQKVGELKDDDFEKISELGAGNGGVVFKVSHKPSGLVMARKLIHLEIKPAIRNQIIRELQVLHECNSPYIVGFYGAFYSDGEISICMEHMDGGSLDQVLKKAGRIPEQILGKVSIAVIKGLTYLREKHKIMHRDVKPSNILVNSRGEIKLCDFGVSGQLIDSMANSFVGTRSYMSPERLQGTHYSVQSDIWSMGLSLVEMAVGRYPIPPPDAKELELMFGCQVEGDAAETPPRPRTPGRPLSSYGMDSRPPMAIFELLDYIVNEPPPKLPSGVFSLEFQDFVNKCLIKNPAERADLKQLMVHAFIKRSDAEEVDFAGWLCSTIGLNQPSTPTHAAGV
# measurement.description: radiometric filter-binding kinase assay
# assay.context: compound 1.0 µM
attribute.measured: residual activity (%)

| smiles.representation | system | val |
| --- | --- | --- |
| O=c1c(O)c(-c2ccc(O)c(O)c2)oc2cc(O)c(O)c(O)c12 | MAP2K1 (human) (UniProt Q02750) | 84 |
| Cc1ccc(-c2ccc3c(ccc4sc5c(c43)NC[C@@H](C)NC5=O)n2)cn1 | MAP2K1 (human) (UniProt Q02750) | 97 |
| CCCC(CCC)C(=O)O | MAP2K1 (human) (UniProt Q02750) | 86 |
| Cc1nc(-c2ccc(OCC(C)C)c(C#N)c2)sc1C(=O)O | MAP2K1 (human) (UniProt Q02750) | 85 |
| FC(F)(F)c1ccc(-c2ccc(Oc3cncc4sc(-c5nn[nH]n5)cc34)cc2)cc1 | MAP2K1 (human) (UniProt Q02750) | 87 |
| Cc1ccc(Sc2cnc(Nc3cccc(Br)n3)s2)cc1C(=O)N1CCN(C(=O)CN)CC1 | MAP2K1 (human) (UniProt Q02750) | 85 |
| Cc1cc(NC(=O)c2cccc(NC(=O)/C=C/CN(C)C)c2)ccc1Nc1nccc(-c2cccnc2)n1 | MAP2K1 (human) (UniProt Q02750) | 96 |
| CCNc1nc(Nc2cc(F)c(C(=O)N3CCOCC3)cc2OC)ncc1C(F)(F)F | MAP2K1 (human) (UniProt Q02750) | 95 |
| NC(=O)c1cc2c(-c3cccc(-c4ccccc4)c3)cnc(N)c2s1 | MAP2K1 (human) (UniProt Q02750) | 86 |
| Cc1cc(SCc2sc(-c3ccc(C(F)(F)F)cc3)nc2C)ccc1OCC(=O)O | MAP2K1 (human) (UniProt Q02750) | 105 |
| CCCCCc1ccc(/C=C/[C@H](O)[C@@H](CO)NC)cc1 | MAP2K1 (human) (UniProt Q02750) | 102 |

###

# system: YES1 (human) (UniProt P07947)
# Sequence (P07947 whole entry, looked up): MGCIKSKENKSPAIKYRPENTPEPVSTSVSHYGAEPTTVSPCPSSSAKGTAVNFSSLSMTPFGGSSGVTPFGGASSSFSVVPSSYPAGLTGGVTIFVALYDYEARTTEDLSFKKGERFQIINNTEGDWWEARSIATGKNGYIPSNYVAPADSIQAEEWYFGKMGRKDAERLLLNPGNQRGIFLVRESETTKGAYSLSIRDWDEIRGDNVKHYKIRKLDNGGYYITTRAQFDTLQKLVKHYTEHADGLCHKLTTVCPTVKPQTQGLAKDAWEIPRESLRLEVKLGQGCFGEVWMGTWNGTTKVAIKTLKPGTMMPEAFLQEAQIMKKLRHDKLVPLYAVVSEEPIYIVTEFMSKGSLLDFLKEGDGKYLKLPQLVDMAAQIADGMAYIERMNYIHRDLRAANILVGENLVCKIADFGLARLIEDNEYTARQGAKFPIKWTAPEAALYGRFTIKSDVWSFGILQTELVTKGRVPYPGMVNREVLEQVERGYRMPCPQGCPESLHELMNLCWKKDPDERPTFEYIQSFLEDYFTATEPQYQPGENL
# measurement.description: radiometric filter-binding kinase assay
# assay.context: compound 1.0 µM
attribute.measured: residual activity (%)

| smiles.representation | val |
| --- | --- |
| O=C(Nc1cccnc1)c1cc(-c2ccnc(F)c2)ccc1OCc1ccccc1 | 120 |
| Cc1ccc(=O)n(-c2ccccc2)c1 | 118 |
| CCn1c(-c2nonc2N)nc2cncc(CNC3CCNCC3)c21 | 98 |
| Cn1c(=O)c2c(ncn2C)n(C)c1=O | 85 |
| CC(C)(C#N)c1ccc(N2C(=O)OCc3cnc4ccc(-c5cnc6ccccc6c5)cc4c32)cc1 | 92 |

###

# System: SGK1 (human), O00141 [S422D]
# Sequence (O00141 whole entry S422D, looked up): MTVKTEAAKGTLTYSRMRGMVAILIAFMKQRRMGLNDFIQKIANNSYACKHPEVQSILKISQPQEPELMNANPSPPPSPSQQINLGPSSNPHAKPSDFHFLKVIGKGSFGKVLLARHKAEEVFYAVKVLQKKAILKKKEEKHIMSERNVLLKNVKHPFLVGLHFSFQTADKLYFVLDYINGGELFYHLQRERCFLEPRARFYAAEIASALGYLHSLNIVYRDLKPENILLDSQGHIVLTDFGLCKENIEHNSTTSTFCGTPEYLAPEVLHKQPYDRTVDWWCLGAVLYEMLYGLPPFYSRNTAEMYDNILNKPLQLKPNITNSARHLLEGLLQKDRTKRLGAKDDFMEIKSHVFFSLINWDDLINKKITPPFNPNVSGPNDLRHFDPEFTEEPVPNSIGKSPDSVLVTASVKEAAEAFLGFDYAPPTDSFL
# measurement.description: radiometric filter-binding kinase assay
# assay.context: compound 10.0 µM
attribute.measured: residual activity (%)

| smiles.representation | residual activity [%] |
| --- | --- |
| c1ccc2c(-c3cnn4cc(-c5ccc(N6CCNCC6)cc5)cnc34)ccnc2c1 | 70 |
| N#Cc1c(C2CCNCC2)cc(-c2c(O)cccc2OCC2CC2)nc1N | 69 |
| COC(=O)/C=C/C(=O)OC | 93 |
| Cc1cccc(Nc2nn(C)c3ncnc(N)c23)c1 | 113 |

(I) C=CC(=O)N1CCC[C@@H](n2nc(-c3ccc(Oc4ccccc4)cc3)c3c(N)ncnc32)C1
(II) CCn1c(-c2nonc2N)nc2cncc(CNC3CCNCC3)c21
(III) NC(=O)Nc1ccc2c(c1)/C(=C/c1cc(-c3cccnc3)c[nH]1)C(=O)N2
## Task Ordering criterion: residual activity; begin with the maximum. List the labels, following the order given in the request.
## Result I, II, III
